tested on: A549/ATCC NSCLC; assay: NCI-60 one-dose screen, 48 h (100 = growth as untreated, 0 = no growth, -100 = all killed); conditions: 10 µM unless noted
The panel holds about 83,000 compounds, 20% with a hit somewhere; the sample as a whole holds those more often.
// returns -1 unless growth is strictly below 70%, in which case 1

>  <compound>
C(=N\Nc1nnn(Cc2ccccc2)n1)/c1ccccc1

>  <label_class>
1

$$$$
>  <compound>
O=C1C(Cl)=C(Cl)C(=O)c2c1nc1n2CCCC1

>  <label_class>
-1

$$$$
>  <compound>
COc1cc(OC)c(/C=C/C(=O)c2c(OC)cc(OC)cc2OC)c(OC)c1

>  <label_class>
1

$$$$
>  <compound>
Nc1cc2nc3ccccc3sc-2cc1=O

>  <label_class>
1

$$$$
>  <compound>
Nc1nc2c(c3ncccc13)C(c1ccc(Cl)c(Cl)c1)Cc1ncccc1-2 (stereo not given)

>  <label_class>
1

$$$$
>  <compound>
Cn1c2ccccc2c2c3c(c4c5ccccc5n(CCCCCC#N)c4c21)C(=O)N(O)C3=O

>  <label_class>
1

$$$$
>  <compound>
COc1ccc(C(=O)COc2ccc(/C=C3\Oc4ccc(Cl)cc4C3=O)cc2)cc1

>  <label_class>
-1

$$$$
>  <compound>
COc1cc(/C=N\NC(=O)CN2CCN(c3cc4c(cc3F)c(=O)c(C(=O)N/N=C/c3ccc(O)c(OC)c3)cn4C3CC3)CC2)ccc1O

>  <label_class>
1

$$$$
>  <compound>
O=C(Nc1ccc(Oc2ccc(F)cc2)c(Cl)c1)c1cccnc1

>  <label_class>
-1

$$$$
>  <compound>
CC/C=C\C[C@H](O)C/C=C1/C(=O)C=C[C@@H]1C/C=C\CCCC(=O)NC(C)C

>  <label_class>
1

$$$$
>  <compound>
COc1cc(NC(N)=NCC(C)(C)COc2ccc(C(F)(F)F)cc2)cnc1C#N

>  <label_class>
-1

$$$$
>  <compound>
CCCCN(CC)CCCCCCCCCCN1CCCc2cc(OC)ccc21

>  <label_class>
-1

$$$$
>  <compound>
CCN(C(=O)CN1CCN(c2cc3c(cc2F)c(=O)c(C(=O)O)cn3C2CC2)CC1)c1nc(-c2ccc(OC)cc2)cs1

>  <label_class>
1

$$$$
>  <compound>
O=C1Nc2ccccc2/C1=C/C(=N/c1nnc(-c2ccc(Cl)cc2)s1)c1ccccc1

>  <label_class>
-1

$$$$
>  <compound>
CCN(CC)CC#CCOC(=O)[C@]1(C)CCC[C@@]2(C)[C@H]1CC(C=O)=C1C=C(C(C)C)CC[C@@H]12

>  <label_class>
1

$$$$
>  <compound>
O=C1c2c[n+](Cc3ccccc3)ccc2-c2nc3ccccc3c3ccnc1c23

>  <label_class>
1

$$$$
>  <compound>
O=C1Nc2c(ccc(Cl)c2Cl)/C1=C/c1cc(Br)c(O)c(Br)c1

>  <label_class>
1

$$$$
>  <compound>
O=C(CN1CCN(c2cc3c(cc2F)c(=O)c(C(=O)O)cn3C2CC2)CC1)Nc1cc(=O)[nH]c(=O)[nH]1

>  <label_class>
-1

$$$$
>  <compound>
COC1=CC(=O)C(OC)=C(OC)C1=O

>  <label_class>
-1

$$$$
>  <compound>
COC(/C=C/c1ccc([N+](=O)[O-])cc1)OC

>  <label_class>
-1

$$$$

Values from PubChem BioAssay (NCI)
